System: 653999-131-R-J2-PDC complex spheroid viability
Assay: Anticancer human tumor 653999-131-R-J2-PDC patient-derived lung adenocarcinoma cell line growth inhibition
Settings: second compound 0.316 µM; first compound 0.000316 µM; hits give low values
measured-quantity: viability, T/C

| molecule | measured-quantity | endpoint-result |
| --- | --- | --- |
| Cn1ncnc1C1c2n[nH]c(=O)c3cc(F)cc(c23)NC1c1ccc(F)cc1 (stereo not drawn) + NC1CC1c1ccc(-c2cccc(O)c2)cc1 | viability, T/C | 92.2% |
| CC(C)CC(NC(=O)C(Cc1ccccc1)NC(=O)c1cnccn1)B(O)O (stereo not drawn) + NC1CC1c1ccc(-c2cccc(O)c2)cc1 | viability, T/C | 110% |
| CC(C)CC(NC(=O)CNC(=O)c1cc(Cl)ccc1Cl)B1OC(=O)CC(CC(=O)O)(C(=O)O)O1 (stereo not drawn) + NC1CCC(NC2CC2c2ccccc2)CC1 | viability, T/C | 80.7% |
| CC(C)CC(NC(=O)CNC(=O)c1cc(Cl)ccc1Cl)B1OC(=O)CC(CC(=O)O)(C(=O)O)O1 (stereo not drawn) + NC1CC1c1ccc(-c2cccc(O)c2)cc1 | viability, T/C | 97.4% |
| CC[C@@]1(O)C(=O)OCc2c1cc1n(c2=O)Cc2cc3c(CN(C)C)c(O)ccc3nc2-1 + NC1CCC(NC2CC2c2ccccc2)CC1 | viability, T/C | 87% |
| Cn1ncnc1C1c2n[nH]c(=O)c3cc(F)cc(c23)NC1c1ccc(F)cc1 (stereo not drawn) + NC1CCC(NC2CC2c2ccccc2)CC1 | viability, T/C | 85.4% |
| CC[C@@]1(O)C(=O)OCc2c1cc1n(c2=O)Cc2cc3c(CN(C)C)c(O)ccc3nc2-1 + NC1CC1c1ccc(-c2cccc(O)c2)cc1 | viability, T/C | 111% |
| CC(C)CC(NC(=O)C(Cc1ccccc1)NC(=O)c1cnccn1)B(O)O (stereo not drawn) + NC1CCC(NC2CC2c2ccccc2)CC1 | viability, T/C | 123% |

---

System: 653999-131-R-J2-PDC complex spheroid viability
Experiment: Anticancer human tumor 653999-131-R-J2-PDC cell line growth inhibition;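 note: spheroids exposed to agents for seven days before readout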
Conditions: second compound 10 µM; first compound 3.16 µM; hits give low values
Parameter viability, T/C: see the listing below.
measured-quantity: viability, T/C (%)

| compound | endpoint-result |
| --- | --- |
| CC(C)c1c(-c2ccccc2)nc2c(C#N)c[nH]n2c1=O + NC1CC1c1ccc(-c2cccc(O)c2)cc1 | 68.9 |
| CC1COCCN1c1cc(C2(S(C)(=N)=O)CC2)nc(-c2ccnc3[nH]ccc23)n1 (centres undefined) + NC1CC1c1ccc(-c2cccc(O)c2)cc1 | 41.1 |
| O=C(c1cc(Cc2n[nH]c(=O)c3ccccc23)ccc1F)N1CCN(C(=O)C2CC2)CC1 + NC1CC1c1ccc(-c2cccc(O)c2)cc1 | 71.7 |
| CC1(C)CCC(CN2CCN(c3ccc(C(=O)NS(=O)(=O)c4ccc(NCC5CCOCC5)c([N+](=O)[O-])c4)c(Oc4cnc5[nH]ccc5c4)c3)CC2)=C(c2ccc(Cl)cc2)C1 + NC1CC1c1ccc(-c2cccc(O)c2)cc1 | 68.8 |

---

Tested on: 653999-131-R-J2-PDC complex spheroid viability
Test: Anticancer human tumor 653999-131-R-J2-PDC cell line growth inhibition;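 note: spheroids exposed to agents for seven days before readout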
Details: second compound 10 µM; first compound 0.316 µM; hits give low values
Threshold 70%: viability, T/C strictly smaller gives Yes, otherwise No.

| compound | answer-label |
| --- | --- |
| CC(C)c1c(-c2ccccc2)nc2c(C#N)c[nH]n2c1=O + NC1CCC(NC2CC2c2ccccc2)CC1 | No |
| COc1ccc([C@@H](O)c2cc(-c3ncnc4cc(N5CCOCC5)ccc34)c(F)cc2Cl)nn1 + NC1CC1c1ccc(-c2cccc(O)c2)cc1 | Yes |
| COc1cc(Nc2ncc3c(n2)-c2ccc(Cl)cc2C(c2c(F)cccc2OC)=NC3)ccc1C(=O)O + NC1CC1c1ccc(-c2cccc(O)c2)cc1 | Yes |
| CC1COCCN1c1cc(-c2ccnn2C)c2ccnc(-c3ccn[nH]3)c2n1 (configuration not stated) + NC1CCC(NC2CC2c2ccccc2)CC1 | Yes |
| CC(C)c1c(-c2ccccc2)nc2c(C#N)c[nH]n2c1=O + NC1CC1c1ccc(-c2cccc(O)c2)cc1 | No |
| Nc1ncn(C2CC(O)C(CO)O2)c(=O)n1 (configuration not stated) + NC1CCC(NC2CC2c2ccccc2)CC1 | No |

Numbers sourced from PubChem BioAssay AID1918939.
